Molecular target: hNIS (Homo sapiens, UniProt Q92911)
Type: cell-based
Conditions: read-out: IC50, inhibition of [18F]SO3F- uptake; HCT116-C19 cells
measurement-name: IC50

Please give the documented IC50 of O=S(=O)(O)F [SO3F^-, fluorosulfate]
1600 nM

---

Target: UniProt:Q92911
Sequence (Q92911 1-643): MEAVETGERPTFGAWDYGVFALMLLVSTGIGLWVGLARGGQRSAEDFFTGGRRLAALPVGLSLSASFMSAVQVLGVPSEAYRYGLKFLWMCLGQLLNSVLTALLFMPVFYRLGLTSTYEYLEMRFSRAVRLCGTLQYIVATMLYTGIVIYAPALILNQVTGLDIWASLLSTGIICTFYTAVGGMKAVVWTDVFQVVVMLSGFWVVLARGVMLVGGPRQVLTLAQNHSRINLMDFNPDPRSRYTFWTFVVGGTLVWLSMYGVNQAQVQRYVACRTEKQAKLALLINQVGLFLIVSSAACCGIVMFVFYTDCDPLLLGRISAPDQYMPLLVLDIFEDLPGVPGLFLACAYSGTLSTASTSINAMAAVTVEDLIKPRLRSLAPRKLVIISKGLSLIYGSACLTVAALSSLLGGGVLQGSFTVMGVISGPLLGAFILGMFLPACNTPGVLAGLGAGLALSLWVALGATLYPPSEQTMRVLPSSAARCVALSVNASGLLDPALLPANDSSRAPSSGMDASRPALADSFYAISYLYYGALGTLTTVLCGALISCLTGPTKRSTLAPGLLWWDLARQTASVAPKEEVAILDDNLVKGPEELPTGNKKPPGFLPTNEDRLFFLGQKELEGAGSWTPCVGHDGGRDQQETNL
Assay type: cell-based
Settings: read-out: IC50, inhibition of anion uptake via hNIS
measurement-name: pIC50
Notebook: values listed as pIC50 are -log10 of the concentration (mol/L).

State recorded pIC50 with UniProt:Q92911, entry O=S(=O)(O)F [SO3F^-, fluorosulfate] , no comment.
6.25

---

Biological target: hNIS (Homo sapiens)
Format: cell-based
Conditions: read-out: IC50, inhibition of [99mTc]TcO4- uptake via hNIS
pIC50: −log10 of the molar value.
Listed here: items and their measured pIC50.

Record excerpt, results attached:
compound: O=S(=O)(O)F [SO3F^-, fluorosulfate]
pIC50: 6.25 to 6.26
//
compound: F[B-](F)(F)F [BF4^-, tetrafluoroborate]
pIC50: 5.35 to 6.54
//
compound: I [I^-, iodide]
pIC50: 5.33 to 5.57

// next entry
Please give the documented pIC50 of [O]=[Tc](=[O])(=[O])[OH] [TcO4^-, pertechnetate]
7.15

Value source: paper PMC6233868
